Data provenance is patent US20260176249A1.

- assay.procedure: Metabolic stability in rat liver microsomes
- Format: in vitro ADME
- condition.summary: rat, pH 7.4
Recorded measurements of log10 of CLint scaled at 1 µM, one per entry
A value of 2 here means CLint scaled at 1 µM of 100 in mL/min/kg, since values are log10.

- CCc1sc(C(N)=O)c2c1-c1nc(Nc3cc(N4CCN(C)CC4)ccc3OC(F)(F)F)ncc1CC2: 3.04
- CN1CCN(c2ccc(OC(F)(F)F)c(Nc3ncc4c(n3)-c3c(c(C(=O)NNC(N)=O)nn3C)CC4)c2)CC1: 2.18
- CN1CCN(c2ccc(OC(F)(F)F)c(Nc3ncc4c(n3)-c3c(c(C(=O)NN)nn3CCO)CC4)c2)CC1: 1.87
- Cn1nc(C(N)=O)c2c1-c1nc(Nc3cc(N4CCN(CCO)CC4)ccc3OC(F)(F)F)ncc1CC2: 1.98
- CN1CCN(c2ccc(OC(F)(F)F)c(Nc3ncc4c(n3)-c3c(c(C(N)=O)nn3CCO)CC4)c2)CC1 [Onvansertib, reference compound]: 2.04
- CN1CCN(c2ccc(OC(F)(F)F)c(Nc3ncc4c(n3)-c3c(c(C(N)=O)cn3CCO)CC4)c2)CC1: 2.01

Here is the next item to consider.
[in] Name the recorded log10 of CLint scaled at 1 µM for CN1CCN(c2ccc(OC(F)(F)F)c(Nc3ncc4c(n3)-c3c(c(C(=O)NO)nn3CCF)CC4)c2)CC1 .
[out] 2.61

###

- assay.procedure: Metabolic stability in mouse liver microsomes
- Type: in vitro ADME
- condition.summary: mouse, pH 7.4
Listed below: half-life at 1 µM values for each entry.
Please give a number only; it is taken to be in min.

Known results for compounds:
* CN1CCN(c2ccc(OC(F)(F)F)c(Nc3ncc4ccc5c(C(N)=O)nn(C)c5c4n3)c2)CC1 | 13.4
* CN1CCN(c2ccc(OCC(F)(F)F)c(Nc3ncc4c(n3)-c3c(c(C(N)=O)nn3CCO)CC4)c2)CC1 | 73.7

[in] Field request: half-life at 1 µM | item: CN1CCN(c2ccc(OC(F)(F)F)c(Nc3ncc4c(n3)-c3c(c(C(=O)NNC(N)=O)nn3C)CC4)c2)CC1
[out] 33.6

[in] What value of half-life at 1 µM has been recorded for this entry: CN1CCN(c2ccc(OC(F)(F)F)c(Nc3ncc4c(n3)-c3c(c(C(N)=O)nn3CCO)CC4)c2)CC1 [Onvansertib, reference compound]
[out] 27.2

[in] Request the reported half-life at 1 µM associated with Cn1nc(C(N)=O)c2c1-c1nc(Nc3cc(N4CCN(CCO)CC4)ccc3OC(F)(F)F)ncc1CC2
[out] 23.1

[in] Quick one: half-life at 1 µM of CN1CCN(c2ccc(OC(F)(F)F)c(Nc3ncc4c(n3)-c3c(c(C(=O)NN)nn3CCO)CC4)c2)CC1 ?
[out] 44.7

[in] Fill in the blank: the reported half-life at 1 µM of CN1CCN(c2ccc(OC(F)(F)F)c(Nc3ncc4c(n3)-c3c(c(C(=O)NO)nn3CCF)CC4)c2)CC1 is ____.
[out] 11.7

###

- assay.procedure: Metabolic stability in rat liver microsomes
- Assay type: in vitro ADME
// assign yes (1) if 60 min remaining amount falls strictly below 20%, else no (0) (ties count as no (0))

- CN1CCN(c2ccc(OC(F)(F)F)c(Nc3ncc4c(n3)-c3c(c(C(=O)NO)nn3CCF)CC4)c2)CC1 [Compound 17]: yes (1)
- CCc1sc(C(N)=O)c2c1-c1nc(Nc3cc(N4CCN(C)CC4)ccc3OC(F)(F)F)ncc1CC2 [Compound 7]: yes (1)
- CN1CCN(c2ccc(OC(F)(F)F)c(Nc3ncc4c(n3)-c3c(c(C(N)=O)nn3CCC#N)CC4)c2)CC1 [Compound 4]: yes (1)
- CN1CCN(c2ccc(OC(F)(F)F)c(Nc3ncc4c(n3)-c3c(c(C(=O)NNC(N)=O)nn3C)CC4)c2)CC1 [Compound 12]: yes (1)
- CN1CCN(c2ccc(OCC(F)(F)F)c(Nc3ncc4c(n3)-c3c(c(C(N)=O)nn3CCO)CC4)c2)CC1 [Compound 24]: no (0)

[in] Decide: 60 min remaining amount of CN1CCN(c2ccc(OC(F)(F)F)c(Nc3ncc4c(n3)-c3c(c(C(N)=O)cn3CCO)CC4)c2)CC1 [Compound 2] strictly below 20%?
[out] yes (1)

[in] Given CN1CCN(c2ccc(OC(F)(F)F)c(Nc3ncc4c(n3)-c3c(c(C(N)=O)nn3CCO)CC4)c2)CC1 [Onvansertib, reference compound] , is recorded 60 min remaining amount strictly lower than 20%?
[out] yes (1)

###

Readings of CLint scaled at 1 µM for the listed compounds
- assay.procedure: Metabolic stability in rat liver microsomes
- Assay type: in vitro ADME
- condition.summary: rat, pH 7.4
Note: unit mL/min/kg is implicit; provide only the numeric part.

Worked examples, 4 compounds total:
- CN1CCN(c2ccc(OCC(F)(F)F)c(Nc3ncc4c(n3)-c3c(c(C(N)=O)nn3CCO)CC4)c2)CC1: 46.4
- CN1CCN(c2ccc(OC(F)(F)F)c(Nc3ncc4ccc5c(C(N)=O)nn(CCF)c5c4n3)c2)CC1: 505
- Cn1nc(C(N)=O)c2ccc3cnc(Nc4cc(N5CCN(CCO)CC5)ccc4OC(F)(F)F)nc3c21: 90
- CN1CCN(c2ccc(OC(F)(F)F)c(Nc3ncc4c(n3)-c3c(c(C(N)=O)nn3CCC#N)CC4)c2)CC1: 211

[in] Looking for the measured CLint scaled at 1 µM of CN1CCN(c2ccc(OC(F)(F)F)c(Nc3ncc4ccc5c(C(N)=O)nn(C)c5c4n3)c2)CC1 , can you help?
[out] 505

###

List of microsomal CLint at 1 µM values.
- assay.procedure: Metabolic stability in mouse liver microsomes
- Assay type: in vitro ADME
- condition.summary: mouse, pH 7.4, read-out: CLint(mic)
The figure you give is taken to be in µL/min/mg; do not add the unit.

[in] I am curious: what microsomal CLint at 1 µM value has been reported for CN1CCN(c2ccc(OCC(F)(F)F)c(Nc3ncc4c(n3)-c3c(c(C(N)=O)nn3CCO)CC4)c2)CC1 ?
[out] 18.8

###

- assay.procedure: Metabolic stability in rat liver microsomes
- Type: in vitro ADME
- condition.summary: rat, pH 7.4, read-out: CLint(mic)
# log10 of microsomal CLint at 1 µM per record follows
Quick note: numbers are log10 of microsomal CLint at 1 µM, with µL/min/mg as the unit.

Sample records with log10 of microsomal CLint at 1 µM:
* Cn1nc(C(N)=O)c2ccc3cnc(Nc4cc(N5CCN(CCO)CC5)ccc4OC(F)(F)F)nc3c21 [Compound 16] | 1.70
* Cn1nc(C(N)=O)c2c1-c1nc(Nc3cc(N4CCN(CCO)CC4)ccc3OC(F)(F)F)ncc1CC2 [Compound 20] | 1.72
* CN1CCN(c2ccc(OCC(F)(F)F)c(Nc3ncc4c(n3)-c3c(c(C(N)=O)nn3CCO)CC4)c2)CC1 [Compound 24] | 1.41

[in] Could you tell me which log10 of microsomal CLint at 1 µM is on file for CN1CCN(c2ccc(OC(F)(F)F)c(Nc3ncc4c(n3)-c3c(c(C(N)=O)cn3CCO)CC4)c2)CC1 [Compound 2] ?
[out] 1.76

[in] Quick check: log10 of microsomal CLint at 1 µM of CN1CCN(c2ccc(OC(F)(F)F)c(Nc3ncc4c(n3)-c3c(c(C(=O)NO)nn3CCF)CC4)c2)CC1 [Compound 17] ?
[out] 2.36

[in] Suppose we examine the molecule CN1CCN(c2ccc(OC(F)(F)F)c(Nc3ncc4c(n3)-c3c(c(C(=O)NNC(N)=O)nn3C)CC4)c2)CC1 [Compound 12] ; what log10 of microsomal CLint at 1 µM value has been reported?
[out] 1.93

[in] Param item = CN1CCN(c2ccc(OC(F)(F)F)c(Nc3ncc4c(n3)-c3c(c(C(N)=O)nn3CCC#N)CC4)c2)CC1 [Compound 4] ; retrieve measured log10 of microsomal CLint at 1 µM.
[out] 2.07

[in] Can you look up the measured log10 of microsomal CLint at 1 µM of CN1CCN(c2ccc(OC(F)(F)F)c(Nc3ncc4ccc5c(C(N)=O)nn(C)c5c4n3)c2)CC1 [Compound 3] for me?
[out] 2.45

###

- assay.procedure: Metabolic stability in human liver microsomes
- Type: in vitro ADME
- condition.summary: human, pH 7.4, read-out: CLint(mic)
# label = Satisfied if microsomal CLint at 1 µM >= 50 µL/min/mg else Not satisfied

* CN1CCN(c2ccc(OC(F)(F)F)c(Nc3ncc4c(n3)-c3c(c(C(=O)NO)nn3CCF)CC4)c2)CC1 [Compound 17] | Not satisfied
* CN1CCN(c2ccc(OC(F)(F)F)c(Nc3ncc4c(n3)-c3c(c(C(=O)NNC(N)=O)nn3C)CC4)c2)CC1 [Compound 12] | Not satisfied
* CCc1sc(C(N)=O)c2c1-c1nc(Nc3cc(N4CCN(C)CC4)ccc3OC(F)(F)F)ncc1CC2 [Compound 7] | Satisfied

[in] Would you say CN1CCN(c2ccc(OC(F)(F)F)c(Nc3ncc4c(n3)-c3c(c(C(=O)NN)nn3CCO)CC4)c2)CC1 [Compound 13] shows microsomal CLint at 1 µM at minimum 50 µL/min/mg?
[out] Not satisfied
